# tgt: Rat Striatal Nicotinic Receptors ([^3H]MLA binding sites; α7) (Rattus norvegicus, UniProt Q05941)
# Construct: Whole brain, excluding cortex and cerebellum, was homogenized in 20 vol of ice-cold buffer; from tissue; host or cells: rat brain membranes (whole brain excluding cortex and cerebellum)
# Sequence (Q05941 23-502): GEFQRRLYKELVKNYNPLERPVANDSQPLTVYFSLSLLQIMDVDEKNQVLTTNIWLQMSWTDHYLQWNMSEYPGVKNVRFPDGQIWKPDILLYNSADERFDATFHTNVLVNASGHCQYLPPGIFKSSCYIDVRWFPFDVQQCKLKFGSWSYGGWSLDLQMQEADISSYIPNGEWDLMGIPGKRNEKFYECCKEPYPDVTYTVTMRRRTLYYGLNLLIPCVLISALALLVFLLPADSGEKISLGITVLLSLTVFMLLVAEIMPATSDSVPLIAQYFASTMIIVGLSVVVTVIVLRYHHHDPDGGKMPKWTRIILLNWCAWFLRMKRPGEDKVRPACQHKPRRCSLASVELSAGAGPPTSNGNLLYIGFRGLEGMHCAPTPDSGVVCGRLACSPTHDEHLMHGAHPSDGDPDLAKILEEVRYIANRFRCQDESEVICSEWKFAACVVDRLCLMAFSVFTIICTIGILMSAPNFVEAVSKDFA
# experimental protocol: Inhibition of [^3H]MLA (methyllycaconitine) binding
For each of the compounds below, state its Ki.

Would you kindly share the measured Ki for Cc1ccc[n+](CCCCC#CC#CCCCC[n+]2cccc(C)c2)c1 [Example 92] ? > 100 µM

Would you kindly share the measured Ki for Cc1cc(C)c[n+](CCCCC#CC#CCCCC[n+]2cc(C)cc(C)c2)c1 [Example 95] ? 25.6 µM

Would you kindly share the measured Ki for Cc1cc[n+](CCCC/C=C\C=C/CCCC[n+]2ccc(C)cc2)cc1 [Example 4] ? > 100 µM

* * *

# tgt: Rat Striatal Nicotinic Receptors ([^3H]MLA binding sites; α7) (Rattus norvegicus)
# Construct: Whole brain, excluding cortex and cerebellum, was homogenized in 20 vol of ice-cold buffer; from tissue; host or cells: rat brain membranes (whole brain excluding cortex and cerebellum)
# experimental protocol: Inhibition of [^3H]MLA (methyllycaconitine) binding
# condition summary: 100 nM analog; [^3H]MLA; nonspecific S-nicotine; rat brain membranes; read-out: [^3H]MLA binding, % inhibition
parameter measured: inhibition at 0.1 µM (%)
# number only, unit % dropped from output

Would you kindly share the measured inhibition at 0.1 µM for Cc1cc[n+](CCCCc2ccc(CCCC[n+]3ccc(C)c(C)c3)cc2)cc1C ? 0

Would you kindly share the measured inhibition at 0.1 µM for C(#Cc1cccc(C#CCCC[n+]2ccc3ccccc3c2)c1)CCC[n+]1ccc2ccccc2c1 ? 5.6

Would you kindly share the measured inhibition at 0.1 µM for OCCCc1ccc[n+](CCOCCOCCOCC[n+]2cccc(CCCO)c2)c1 ? 8.5

Would you kindly share the measured inhibition at 0.1 µM for Cc1cc[n+](CCCCc2ccc(CCCC[n+]3ccc(C)cc3C)cc2)c(C)c1 ? 0

Would you kindly share the measured inhibition at 0.1 µM for Cc1ccc[n+](CC#Cc2ccc(-c3ccc(C#CC[n+]4cccc(C)c4)cc3)cc2)c1 ? 12

Would you kindly share the measured inhibition at 0.1 µM for Cc1cc[n+](CCCC#Cc2ccccc2C#CCCC[n+]2ccc(C)cc2)cc1 ? 5.4

Would you kindly share the measured inhibition at 0.1 µM for Cc1cc(C)c[n+](CCCCCc2ccccc2CCCCC[n+]2cc(C)cc(C)c2)c1 ? 0

Would you kindly share the measured inhibition at 0.1 µM for CN1CCC[C@H]1c1ccc[n+](CCOCCOCCOCC[n+]2cccc([C@@H]3CCCN3C)c2)c1 ? 13

* * *

# tgt: Rat Striatal Nicotinic Receptors ([^3H]NIC binding sites; α4β2) (Rattus norvegicus, UniProt P09483+P12390)
# Construct: Whole brain, excluding cortex and cerebellum, was homogenized in 20 vol of ice-cold buffer; from tissue; host or cells: rat brain membranes (whole brain excluding cortex and cerebellum)
# Sequence (P09483 31-630): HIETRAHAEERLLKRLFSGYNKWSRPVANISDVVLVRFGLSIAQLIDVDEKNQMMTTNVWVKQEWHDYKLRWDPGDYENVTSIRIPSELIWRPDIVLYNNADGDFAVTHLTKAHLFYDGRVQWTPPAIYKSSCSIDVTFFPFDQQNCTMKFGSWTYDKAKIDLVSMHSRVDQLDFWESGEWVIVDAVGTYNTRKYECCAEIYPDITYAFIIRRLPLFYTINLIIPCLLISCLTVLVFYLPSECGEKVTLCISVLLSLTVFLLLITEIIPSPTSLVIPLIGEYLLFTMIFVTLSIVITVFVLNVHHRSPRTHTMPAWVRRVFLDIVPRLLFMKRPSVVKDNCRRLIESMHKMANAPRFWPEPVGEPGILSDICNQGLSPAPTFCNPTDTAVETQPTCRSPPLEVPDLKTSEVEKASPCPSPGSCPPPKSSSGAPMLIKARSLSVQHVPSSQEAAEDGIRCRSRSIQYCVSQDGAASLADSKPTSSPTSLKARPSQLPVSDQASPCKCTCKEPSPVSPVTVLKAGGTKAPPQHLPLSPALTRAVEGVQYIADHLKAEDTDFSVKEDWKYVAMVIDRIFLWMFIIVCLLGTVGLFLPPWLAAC
# Sequence (P12390 25-500): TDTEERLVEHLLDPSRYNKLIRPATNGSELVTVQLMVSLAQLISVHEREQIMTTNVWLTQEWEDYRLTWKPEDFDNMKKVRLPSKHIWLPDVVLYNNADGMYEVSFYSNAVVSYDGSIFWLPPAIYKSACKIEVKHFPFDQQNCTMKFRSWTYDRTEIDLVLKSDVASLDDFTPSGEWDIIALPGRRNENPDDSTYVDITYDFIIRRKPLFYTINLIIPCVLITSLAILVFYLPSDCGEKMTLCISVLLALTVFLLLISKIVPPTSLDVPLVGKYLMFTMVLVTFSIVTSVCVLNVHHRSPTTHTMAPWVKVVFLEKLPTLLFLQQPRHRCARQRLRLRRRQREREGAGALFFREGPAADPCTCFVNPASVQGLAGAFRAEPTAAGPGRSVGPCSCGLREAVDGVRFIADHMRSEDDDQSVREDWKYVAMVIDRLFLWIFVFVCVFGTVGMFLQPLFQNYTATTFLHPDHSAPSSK
# experimental protocol: Inhibition of [^3H]NIC binding
# condition summary: 1 h; 100 nM analog; 3 nM [^3H]NIC; nonspecific 10 μM cytisine; rat brain membranes
parameter measured: inhibition at 0.1 µM (%)
# number only, unit % dropped from output

Would you kindly share the measured inhibition at 0.1 µM for CN1CCCC1c1ccc[n+](CCCCCc2ccccc2CCCCC[n+]2cccc([C@@H]3CCCN3C)c2)c1 (some centres unmarked) ? 71

Would you kindly share the measured inhibition at 0.1 µM for C(#Cc1cccc(C#CCCC[n+]2ccccc2)c1)CCC[n+]1ccccc1 ? 3.6

Would you kindly share the measured inhibition at 0.1 µM for Cc1ccc[n+](CCCCCc2ccccc2CCCCC[n+]2cccc(C)c2)c1 ? 0

Would you kindly share the measured inhibition at 0.1 µM for Cc1cc[n+](CCCC#Cc2cccc(C#CCCC[n+]3ccc(C)cc3)c2)cc1 ? 10

Would you kindly share the measured inhibition at 0.1 µM for Cc1cccc[n+]1CCCC#Cc1cccc(C#CCCC[n+]2ccccc2C)c1 ? 1.9

Would you kindly share the measured inhibition at 0.1 µM for Cc1cccc[n+]1CCCc1ccc(-c2ccc(CCC[n+]3ccccc3C)cc2)cc1 ? 0

Would you kindly share the measured inhibition at 0.1 µM for Cc1cc(C)c[n+](CCCCCc2ccccc2CCCCC[n+]2cc(C)cc(C)c2)c1 ? 0.7

Would you kindly share the measured inhibition at 0.1 µM for Cc1cc(C)c[n+](CCC#Cc2ccc(C#CCC[n+]3cc(C)cc(C)c3)cc2)c1 ? 0

Would you kindly share the measured inhibition at 0.1 µM for Cc1cccc[n+]1CCCCCc1cccc(CCCCC[n+]2ccccc2C)c1 ? 7.2

Would you kindly share the measured inhibition at 0.1 µM for Cc1cccc[n+]1CCCC#Cc1ccccc1C#CCCC[n+]1ccccc1C ? 2.1

Would you kindly share the measured inhibition at 0.1 µM for Cc1ccc[n+](CC#Cc2ccc(-c3ccc(C#CC[n+]4cccc(C)c4)cc3)cc2)c1 ? 9.4

Would you kindly share the measured inhibition at 0.1 µM for Cc1cc[n+](CCCCCc2ccccc2CCCCC[n+]2ccc(C)cc2C)c(C)c1 ? 0

Would you kindly share the measured inhibition at 0.1 µM for Cc1cc(C)c[n+](CCCC#Cc2cccc(C#CCCC[n+]3cc(C)cc(C)c3)c2)c1 ? 0

Would you kindly share the measured inhibition at 0.1 µM for Cc1cc[n+](CCCC/C=C\C=C/CCCC[n+]2ccc(C)cc2C)c(C)c1 ? 1

Would you kindly share the measured inhibition at 0.1 µM for Cc1cc[n+](CCCc2ccc(-c3ccc(CCC[n+]4ccc(C)cc4)cc3)cc2)cc1 ? 0

Would you kindly share the measured inhibition at 0.1 µM for Cc1ccc[n+](CCCc2ccc(-c3ccc(CCC[n+]4cccc(C)c4)cc3)cc2)c1 ? 0

Would you kindly share the measured inhibition at 0.1 µM for Cc1cc[n+](CCCC#Cc2cccc(C#CCCC[n+]3ccc(C)cc3C)c2)c(C)c1 ? 7

* * *

# tgt: Rat Striatal Nicotinic Receptors ([^3H]NIC binding sites; α4β2) (Rattus norvegicus, UniProt P09483+P12390)
# Construct: Whole brain, excluding cortex and cerebellum, was homogenized in 20 vol of ice-cold buffer; from tissue; host or cells: rat brain membranes (whole brain excluding cortex and cerebellum)
# experimental protocol: Inhibition of [^3H]NIC binding
# condition summary: full concentration effect; 3 nM [^3H]NIC; nonspecific 10 μM cytisine; rat brain membranes; read-out: [^3H]NIC binding, Ki
For each of the compounds below, state its Ki.
# number only, unit µM dropped from output

Would you kindly share the measured Ki for c1cc2c([n+](CCCCc3ccc(CCCC[n+]4cccc5c4CCCC5)cc3)c1)CCCC2 ? 12

Would you kindly share the measured Ki for CN1CCC[C@H]1c1ccc[n+](CCCC/C=C\C=C/CCCC[n+]2cccc([C@@H]3CCCN3C)c2)c1 ? 1.09

Would you kindly share the measured Ki for Cc1ccc[n+](CCC#Cc2ccc(C#CCC[n+]3cccc(C)c3)cc2)c1 ? 2.75

Would you kindly share the measured Ki for Cc1cc[n+](CCCCC#CC#CCCCC[n+]2ccc(C)c(C)c2)cc1C ? 8.6

* * *

For each of the compounds below, state its inhibition at 0.1 µM.
# tgt: Rat Striatal Nicotinic Receptors ([^3H]MLA binding sites; α7) (Rattus norvegicus, UniProt Q05941)
# Construct: Whole brain, excluding cortex and cerebellum, was homogenized in 20 vol of ice-cold buffer; from tissue; host or cells: rat brain membranes (whole brain excluding cortex and cerebellum)
# experimental protocol: Inhibition of [^3H]MLA (methyllycaconitine) binding
# condition summary: 100 nM analog; [^3H]MLA; nonspecific S-nicotine; rat brain membranes; read-out: [^3H]MLA binding, % inhibition
# number only, unit % dropped from output

Would you kindly share the measured inhibition at 0.1 µM for Cc1cc[n+](CCCc2ccc(-c3ccc(CCC[n+]4ccc(C)c(C)c4)cc3)cc2)cc1C ? 5.5

Would you kindly share the measured inhibition at 0.1 µM for Cc1cc[n+](CCCc2ccc(-c3ccc(CCC[n+]4ccc(C)cc4C)cc3)cc2)c(C)c1 ? 0.6

Would you kindly share the measured inhibition at 0.1 µM for Cc1cccc[n+]1CCCCCc1cccc(CCCCC[n+]2ccccc2C)c1 ? 0

Would you kindly share the measured inhibition at 0.1 µM for Cc1cc[n+](CCCC#Cc2ccccc2C#CCCC[n+]2ccc(C)cc2C)c(C)c1 ? 0

* * *

# tgt: Rat Striatal Nicotinic Receptors ([^3H]MLA binding sites; α7) (Rattus norvegicus, UniProt Q05941)
# Construct: Whole brain, excluding cortex and cerebellum, was homogenized in 20 vol of ice-cold buffer; from tissue; host or cells: rat brain membranes (whole brain excluding cortex and cerebellum)
# experimental protocol: Inhibition of [^3H]MLA (methyllycaconitine) binding
# condition summary: 100 nM analog; [^3H]MLA; nonspecific S-nicotine; rat brain membranes; read-out: [^3H]MLA binding, % inhibition
# binarize inhibition at 0.1 µM: threshold 4% inclusive, high side 1, low side 0

Could you tell me if the measured inhibition at 0.1 µM of Cc1cccc[n+]1CCCC#Cc1ccccc1C#CCCC[n+]1ccccc1C reaches 4% or more? 0

Could you tell me if the measured inhibition at 0.1 µM of C(#Cc1ccccc1C#CCCC[n+]1ccc2ccccc2c1)CCC[n+]1ccc2ccccc2c1 reaches 4% or more? 0

Could you tell me if the measured inhibition at 0.1 µM of Cc1cc[n+](CCCC#Cc2ccccc2C#CCCC[n+]2ccc(C)c(C)c2)cc1C reaches 4% or more? 1

Could you tell me if the measured inhibition at 0.1 µM of Cc1cc[n+](CCCCCc2ccccc2CCCCC[n+]2ccc(C)cc2)cc1 reaches 4% or more? 0

Could you tell me if the measured inhibition at 0.1 µM of c1cc(CCCCC[n+]2cccc3ccccc32)cc(CCCCC[n+]2cccc3ccccc32)c1 reaches 4% or more? 1

Could you tell me if the measured inhibition at 0.1 µM of CN1CCC[C@@H]1c1ccc[n+](CCCC#Cc2ccccc2C#CCCC[n+]2cccc([C@@H]3CCCN3C)c2)c1 reaches 4% or more? 1

Could you tell me if the measured inhibition at 0.1 µM of CN1CCCC1c1ccc[n+](CCCCCc2ccccc2CCCCC[n+]2cccc([C@@H]3CCCN3C)c2)c1 (stereo partly shown) reaches 4% or more? 1
